Quick list: inhibition at 1 µM per entry.
target_entity: IFN-γ-induced IDO enzyme in HeLa cells (Homo sapiens, UniProt P14902)
Construct: HeLa cells are human cervical cancer cell lines and can up-regulate the expression of endogenous IDO enzymes; endogenous in cells; host or cells: HeLa cells stimulated with human IFN-γ
assay_summary: Detection of IDO inhibitory activity at the cellular level (IFN-γ-induced HeLa cells)
Format: cell-based
condition: tested compound 1 μM, human IFN-γ 50 ng/ml, 48 hours, read-out: IDO Inhibitory Rate (%) (1 μM)

The cases that follow already have their inhibition at 1 µM on record.
| compound | target_entity | inhibition at 1 µM |
| --- | --- | --- |
| O=C(COc1nc2ccccc2o1)N1CCC(C(O)CC2c3ccccc3-c3cncn32)CC1 (stereo not drawn) [Example 37] | IFN-γ-induced IDO enzyme in HeLa cells (Homo sapiens, UniProt P14902) | 97% |
| O=C(COc1ccc2oc3ccccc3c2c1)N1CCC(C(O)CC2c3ccccc3-c3cncn32)CC1 (stereo not drawn) [Example 57] | IFN-γ-induced IDO enzyme in HeLa cells (Homo sapiens, UniProt P14902) | 91% |

## Input Would you kindly share the measured inhibition at 1 µM for CN(CC(=O)N1CCC(C(O)CC2c3ccccc3-c3cncn32)CC1)c1cccc(Cl)c1 (stereo not drawn) [Example 63] ?
## Output 99%

## Input Would you kindly share the measured inhibition at 1 µM for CN(CC(=O)N1CCC(C(O)CC2c3ccccc3-c3cncn32)CC1)c1ccc([N+](=O)[O-])cc1 (stereo not drawn) [Example 105] ?
## Output 91%

## Input Would you kindly share the measured inhibition at 1 µM for CN(CC(=O)N1CCC(C(O)CC2c3ccccc3-c3cncn32)CC1)c1ccc2c(c1)oc1ccccc12 (stereo not drawn) [Example 124] ?
## Output 79%

## Input Would you kindly share the measured inhibition at 1 µM for CN(CC(=O)N1CCC(C(O)CC2c3ccccc3-c3cncn32)CC1)c1cccc(C(F)(F)F)c1 (stereo not drawn) [Example 94] ?
## Output 98%

## Input Would you kindly share the measured inhibition at 1 µM for O=C(COc1ccccc1)N1CCC(C(O)CC2c3ccccc3-c3cncn32)CC1 (stereo not drawn) [Example 7] ?
## Output 93%

* * *

target_entity: Recombinant human IDO enzyme (IDO1 enzyme) (Homo sapiens, UniProt P14902)
Construct: purchased BPS Bioscience, USA
Sequence (P14902 whole entry): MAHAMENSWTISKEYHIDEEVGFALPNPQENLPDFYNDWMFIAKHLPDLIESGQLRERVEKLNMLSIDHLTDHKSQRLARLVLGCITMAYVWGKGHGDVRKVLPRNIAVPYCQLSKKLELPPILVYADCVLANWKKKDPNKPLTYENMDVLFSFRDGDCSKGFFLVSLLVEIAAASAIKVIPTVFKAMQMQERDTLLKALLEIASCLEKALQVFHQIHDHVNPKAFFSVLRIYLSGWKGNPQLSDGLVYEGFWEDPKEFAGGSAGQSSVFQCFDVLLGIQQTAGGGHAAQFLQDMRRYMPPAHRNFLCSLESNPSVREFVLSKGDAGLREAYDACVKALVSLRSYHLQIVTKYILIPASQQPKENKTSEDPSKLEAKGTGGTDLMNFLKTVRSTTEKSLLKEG
assay_summary: In vitro IDO enzymatic activity assay (kynurenine colour reaction, 492 nm)
Assay type: biochemical
condition: tested compound concentration 200 nM; recombinant human IDO1; read-out: IDO Enzymatic Inhibition Rate (%) (200 nM)
endpoint_label: inhibition at 0.2 µM (%)
The answer is to be given in %; state only the numeric part.

The cases that follow already have their inhibition at 0.2 µM on record.
| compound | target_entity | scale_unit | inhibition at 0.2 µM |
| --- | --- | --- | --- |
| CN(CC(=O)N1CCC(C(O)CC2c3ccccc3-c3cncn32)CC1)c1cccc(C(F)(F)F)c1 (stereo not shown) [Example 94] | Recombinant human IDO enzyme (IDO1 enzyme) (Homo sapiens, UniProt P14902) | % | 84 |
| O=C(COc1cccc(Cl)c1)N1CCC(C(O)CC2c3ccccc3-c3cncn32)CC1 (stereo not shown) [Example 41] | Recombinant human IDO enzyme (IDO1 enzyme) (Homo sapiens, UniProt P14902) | % | 92 |

## Input Would you kindly share the measured inhibition at 0.2 µM for CN(CC(=O)N1CCC(C(O)CC2c3ccccc3-c3cncn32)CC1)c1ccc(F)c(Cl)c1 (stereo not shown) [Example 68] ?
## Output 87

## Input Would you kindly share the measured inhibition at 0.2 µM for CCN(CC(=O)N1CCC(C(O)CC2c3ccccc3-c3cncn32)CC1)c1ccccc1 (stereo not shown) [Example 81] ?
## Output 85

* * *

target_entity: IFN-γ-induced IDO enzyme in HeLa cells (Homo sapiens, UniProt P14902)
Construct: HeLa cells are human cervical cancer cell lines and can up-regulate the expression of endogenous IDO enzymes; endogenous in cells; host or cells: HeLa cells stimulated with human IFN-γ
assay_summary: Detection of IDO inhibitory activity at the cellular level (IFN-γ-induced HeLa cells)
Type: cell-based
condition: tested compound 1 μM, human IFN-γ 50 ng/ml, 48 hours, read-out: IDO Inhibitory Rate (%) (1 μM)
# cutoff 90% applies to inhibition at 1 µM; >= gives criterion met, < gives criterion not met

The examples below pair each entry with its known result.
| molecule | target_entity | assigned_category |
| --- | --- | --- |
| COc1cccc(N(C)CC(=O)N2CCC(C(O)CC3c4ccccc4-c4cncn43)CC2)c1 (centres unmarked) | IFN-γ-induced IDO enzyme in HeLa cells (Homo sapiens, UniProt P14902) | criterion met |
| CN(CC(=O)N1CCC(C(O)CC2c3ccccc3-c3cncn32)CC1)c1ccccn1 (centres unmarked) | IFN-γ-induced IDO enzyme in HeLa cells (Homo sapiens, UniProt P14902) | criterion not met |
| CN(CC(=O)N1CCC(C(O)CC2c3ccccc3-c3cncn32)CC1)c1ccc(F)c(Cl)c1 (centres unmarked) | IFN-γ-induced IDO enzyme in HeLa cells (Homo sapiens, UniProt P14902) | criterion met |

## Input Is inhibition at 1 µM for O=C(COc1ccc(F)c(Cl)c1)N1CCC(C(O)CC2c3ccccc3-c3cncn32)CC1 (centres unmarked) at or above 90%?
## Output criterion met

## Input Is inhibition at 1 µM for CCN(CC(=O)N1CCC(C(O)CC2c3ccccc3-c3cncn32)CC1)c1ccccc1 (centres unmarked) at or above 90%?
## Output criterion met

## Input Is inhibition at 1 µM for O=C(COc1ccc2ncccc2c1)N1CCC(C(O)CC2c3ccccc3-c3cncn32)CC1 (centres unmarked) at or above 90%?
## Output criterion not met

## Input Is inhibition at 1 µM for O=C(COc1cccc(Cl)c1)N1CCC(C(O)CC2c3ccccc3-c3cncn32)CC1 (centres unmarked) at or above 90%?
## Output criterion met

## Input Is inhibition at 1 µM for CN(CC(=O)N1CCC(C(O)CC2c3ccccc3-c3cncn32)CC1)c1ccc(C(F)(F)F)cc1 (centres unmarked) at or above 90%?
## Output criterion not met

## Input Is inhibition at 1 µM for O=C(COC1CCCCC1)N1CCC(C(O)CC2c3ccccc3-c3cncn32)CC1 (centres unmarked) at or above 90%?
## Output criterion not met

## Input Is inhibition at 1 µM for Cc1ccc(N(C)CC(=O)N2CCC(C(O)CC3c4ccccc4-c4cncn43)CC2)cc1C (centres unmarked) at or above 90%?
## Output criterion met

## Input Is inhibition at 1 µM for O=C(COc1ccc2[nH]c3ccccc3c2c1)N1CCC(C(O)CC2c3ccccc3-c3cncn32)CC1 (centres unmarked) at or above 90%?
## Output criterion met

## Input Is inhibition at 1 µM for CN(CC(=O)N1CCC(C(O)CC2c3ccccc3-c3cncn32)CC1)c1ccc2ncccc2c1 (centres unmarked) at or above 90%?
## Output criterion not met

## Input Is inhibition at 1 µM for O=C(COc1cccc(C(F)(F)F)c1)N1CCC(C(O)CC2c3ccccc3-c3cncn32)CC1 (centres unmarked) at or above 90%?
## Output criterion met

## Input Is inhibition at 1 µM for CN(CC(=O)N1CCC(C(O)CC2c3ccccc3-c3cncn32)CC1)c1ccc(C#N)cc1 (centres unmarked) at or above 90%?
## Output criterion not met

## Input Is inhibition at 1 µM for Cc1ccc(OCC(=O)N2CCC(C(O)CC3c4ccccc4-c4cncn43)CC2)cc1C (centres unmarked) at or above 90%?
## Output criterion met

## Input Is inhibition at 1 µM for O=C(CNc1ccccc1)N1CCC(C(O)CC2c3ccccc3-c3cncn32)CC1 (centres unmarked) at or above 90%?
## Output criterion not met

* * *

Quick list: inhibition at 1 µM per entry.
target_entity: IFN-γ-induced IDO enzyme in HeLa cells (Homo sapiens, UniProt P14902)
Construct: HeLa cells are human cervical cancer cell lines and can up-regulate the expression of endogenous IDO enzymes; endogenous in cells; host or cells: HeLa cells stimulated with human IFN-γ
assay_summary: Detection of IDO inhibitory activity at the cellular level (IFN-γ-induced HeLa cells)
Assay type: cell-based
condition: tested compound 1 μM, human IFN-γ 50 ng/ml, 48 hours, read-out: IDO Inhibitory Rate (%) (1 μM)
The answer is to be given in %; state only the numeric part.

The cases that follow already have their inhibition at 1 µM on record.
| compound | target_entity | inhibition at 1 µM, % |
| --- | --- | --- |
| O=C(COc1ccc2[nH]ccc2c1)N1CCC(C(O)CC2c3ccccc3-c3cncn32)CC1 (stereo not shown) | IFN-γ-induced IDO enzyme in HeLa cells (Homo sapiens, UniProt P14902) | 92 |
| CN(CC(=O)N1CCC(C(O)CC2c3ccccc3-c3cncn32)CC1)c1ccc(F)cc1 (stereo not shown) | IFN-γ-induced IDO enzyme in HeLa cells (Homo sapiens, UniProt P14902) | 91 |
| O=C(COc1ccc(F)cc1)N1CCC(C(O)CC2c3ccccc3-c3cncn32)CC1 (stereo not shown) | IFN-γ-induced IDO enzyme in HeLa cells (Homo sapiens, UniProt P14902) | 89 |

Now let's try a different one.
## Input Would you kindly share the measured inhibition at 1 µM for CN(CC(=O)N1CCC(C(O)CC2c3ccccc3-c3cncn32)CC1)c1ccccc1 (stereo not shown) ?
## Output 92
